Recorded values, source PubChem BioAssay.

test: stimulators of nuclear beta-catenin in C2C12, primary screen, imaging, WNT3A-conditioned medium, mouse C2C12, NPC library (AID 1117326); conditions: at 10 µM, stronger effect = higher value; also: reference of the scale not given here
This listing pairs compounds with measured nuclear beta-catenin stimulation.
All answers are understood in %, so give the number only.

Problem: Query: nuclear beta-catenin stimulation; subject: CC(C)(C)NCC(O)COc1cccc2c1C[C@H](O)[C@H](O)C2 (some centres undefined)
Solution: 1.8

Problem: I'd like to know its nuclear beta-catenin stimulation. The compound in question is `CCCCC[C@H](O)C=C[C@H]1[C@H](O)CC(=O)[C@H]1CC=CCCCC(=O)O`
Solution: 0.5

Problem: # nuclear beta-catenin stimulation lookup, item `NC(=O)c1cnccn1`
Solution: -0.1

Problem: Requested read-out: nuclear beta-catenin stimulation. Entry: `c1ccc2sc(SSc3nc4ccccc4s3)nc2c1`
Solution: 2.2

Problem: Which nuclear beta-catenin stimulation is reported for this compound? CCCOc1ccc2c(c1)CC[C@@H]1[C@@H]2CC[C@]2(C)C(OC)CC[C@@H]12 (some centres undefined)
Solution: 0.5

Problem: Item `CCCCCCCCCCCCOCCOCCOCCOCCOCCOCCOCCOCCOCCO` has what recorded nuclear beta-catenin stimulation?
Solution: 3.9

Next:
Problem: GET /values?readout=nuclear beta-catenin stimulation&item= `COc1cc(NS(=O)(=O)c2ccc(N)cc2)nc(C)n1`
Solution: 1.1

Problem: So what's the measured nuclear beta-catenin stimulation for this one? `O=C(O)c1ccccc1S`
Solution: 4.7

Problem: Given the compound `CN(C)CCN1CCN(c2cccc(Cl)c2)C1=O` , what is its reported nuclear beta-catenin stimulation?
Solution: 0.8

Problem: What value of measured nuclear beta-catenin stimulation is listed for NC(=O)COCCN1CCN(C(c2ccccc2)c2ccc(Cl)cc2)CC1 (centres undefined) ?
Solution: -0.4

Problem: Please look up its nuclear beta-catenin stimulation: `O=C(O)CNC(=O)CNC(=O)CNC(=O)CSC(=O)c1ccccc1`
Solution: -0.8

Problem: Value lookup for nuclear beta-catenin stimulation; key = `CCn1cc(C(=O)O)c(=O)c2cc(F)c(N3CCN(C)CC3)cc21`
Solution: 3.6

Problem: Fill in the blank: the reported nuclear beta-catenin stimulation of `CCCCNC(=O)NS(=O)(=O)c1ccc(N)cc1` is ____.
Solution: 1.6

Problem: Name the recorded nuclear beta-catenin stimulation for `CCN(CC)CCN` .
Solution: 0.4

Problem: Can you share its nuclear beta-catenin stimulation? I mean this compound: CCN(CCO)CCCC(C)Nc1ccnc2cc(Cl)ccc12 (centres undefined)
Solution: 3.8

Problem: Looking for the measured nuclear beta-catenin stimulation of CCC(=O)O[C@]1(C(=O)COC)[C@@H](C)C[C@H]2[C@@H]3CCC4=CC(=O)C=C[C@]4(C)C3(F)[C@@H](O)C[C@@]21C (some centres undefined) , can you help?
Solution: 1.5

Problem: Quick check: nuclear beta-catenin stimulation of `CC(=O)SC[C@@H](Cc1ccccc1)C(=O)NCC(=O)OCc1ccccc1` ?
Solution: -0.9

Problem: Entry `O=C(CN1CCN(Cc2ccc3c(c2)OCO3)CC1)N1c2ccccc2Sc2ccccc21` : reported nuclear beta-catenin stimulation = ?
Solution: 0.2

Problem: I'd like to know its nuclear beta-catenin stimulation. The compound in question is `CC(C)(C)c1nnc(NS(=O)(=O)c2ccc(N)cc2)s1`
Solution: 0.1
